- Test system: pigweed (Amaranthus retroflexus)
- Test description: Test C preemergence, visual plant response rating
- Format: in vivo
- Experimental parameters: Test C, 31 g ai/ha, 0 is no effect, 100 is complete control
Classification field: enter fulfilled for Pigweed plant response rating (0 to 100 scale) values not below 60, not fulfilled for values below it.

CO/N=C(/c1cccc(Br)c1)c1c(O)c(C)nn(C)c1=O : not fulfilled

Quick check: does `C#CCO/N=C(/c1c(O)c(C)nn(C)c1=O)c1cccc2cc(Cl)ccc12` have Pigweed plant response rating (0 to 100 scale) greater than or equal to 60?
fulfilled

---

This section presents compounds with their documented Kochia plant response rating (0 to 100 scale) values.
- Tested on: kochia (Kochia scoparia)
- Test description: Test A postemergence, visual plant response rating
- Type: in vivo
- Experimental parameters: 500 g ai/ha, postemergence; 0 is no effect, 100 is complete control

Cc1ccccc1/C(=N\OC(C)C)c1c(O)c(C)nn(C)c1=O : 50

Please list Kochia plant response rating (0 to 100 scale) recorded for the compound `CON=C(c1c(O)c(C)nn(C)c1=O)c1ccc(C)c2ccccc12`
30

Please list Kochia plant response rating (0 to 100 scale) recorded for the compound `CCO/N=C(/c1c(O)c(C)nn(C)c1=O)c1ccc(F)c2ccccc12`
80

Please list Kochia plant response rating (0 to 100 scale) recorded for the compound `CON=C(c1c(O)c(C)nn(C)c1=O)c1cccc2ccc(Cl)cc12`
60

Please list Kochia plant response rating (0 to 100 scale) recorded for the compound C=CCc1ccccc1C(=NOC)c1c(O)c(C)nn(C)c1=O [Compound 121]
60

Please list Kochia plant response rating (0 to 100 scale) recorded for the compound `Cc1nn(C)c(=O)c(C(=NOCC=CCl)c2ccc(F)c3ccccc23)c1O`
50

Please list Kochia plant response rating (0 to 100 scale) recorded for the compound `CO/N=C(\c1cccc(C(F)(F)F)c1)c1c(O)c(C)nn(C)c1=O`
60

Please list Kochia plant response rating (0 to 100 scale) recorded for the compound `CCO/N=C(\c1c(O)c(Cl)nn(C)c1=O)c1cccc2ccccc12`
80

Please list Kochia plant response rating (0 to 100 scale) recorded for the compound `CO/N=C(/c1cccc(C)c1)c1c(O)c(C2CC2)nn(C)c1=O`
0
